Origin of measurements: ChEMBL document CHEMBL1961873

inhibition listing for selected compounds.
# assayed_target: Tyrosine-protein kinase Fgr (Homo sapiens);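 also: reported values are mean percent inhibition of FGR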
# condition_summary: at 0.1 µM
Output spec: scalar in %, unitless text.

Some compounds with known inhibition results, for comparison:
structure_notation	experimental_value
NS(=O)(=O)c1ccc(Nc2cc(-c3ccc(O)c(F)c3)n[nH]2)cc1	0.78
Fc1ccc(-c2ncn(C3CCNCC3)c2-c2ccnc(Oc3ccc4c(c3)OCO4)n2)cc1	3.23
COc1cccc(/C=N/Nc2ncnc3c2cnn3-c2cccc(OC)c2)c1	1.37
O=C(Nc1n[nH]c2cc(-c3ccccc3)ccc12)C1CC1	1.51
COc1ccc2ncn(-c3cc(O[C@H](C)c4ccccc4Cl)c(C(N)=O)s3)c2c1	2.3
O=C(Nc1ccc(Oc2ccc3[nH]c(NC(=O)c4ccccc4)nc3c2)cc1)Nc1cc(C(F)(F)F)ccc1F	9.57
O=C(Nc1n[nH]c2nc(-c3ccc(O)cc3)c(Br)cc12)C1CC1	7.15
COc1cc2ncn(-c3cc(OCCc4ccccc4)c(C(N)=O)s3)c2cc1OC	-0.62
COc1cccc(-n2cnc3c(N/N=C/c4ccncc4)ncnc32)c1	6.79

Please find the next compound below.
What reported inhibition corresponds to COc1cc(N2CCN(C(C)C)CC2)ccc1Nc1nc(Nc2ccc(F)cc2C(=O)NC[C@@H](O)CO)c2cc[nH]c2n1 on Tyrosine-protein kinase Fgr (Homo sapiens)?
4.37
